Target: human serotonin transporter (Homo sapiens)
Sequence (P31645 whole entry): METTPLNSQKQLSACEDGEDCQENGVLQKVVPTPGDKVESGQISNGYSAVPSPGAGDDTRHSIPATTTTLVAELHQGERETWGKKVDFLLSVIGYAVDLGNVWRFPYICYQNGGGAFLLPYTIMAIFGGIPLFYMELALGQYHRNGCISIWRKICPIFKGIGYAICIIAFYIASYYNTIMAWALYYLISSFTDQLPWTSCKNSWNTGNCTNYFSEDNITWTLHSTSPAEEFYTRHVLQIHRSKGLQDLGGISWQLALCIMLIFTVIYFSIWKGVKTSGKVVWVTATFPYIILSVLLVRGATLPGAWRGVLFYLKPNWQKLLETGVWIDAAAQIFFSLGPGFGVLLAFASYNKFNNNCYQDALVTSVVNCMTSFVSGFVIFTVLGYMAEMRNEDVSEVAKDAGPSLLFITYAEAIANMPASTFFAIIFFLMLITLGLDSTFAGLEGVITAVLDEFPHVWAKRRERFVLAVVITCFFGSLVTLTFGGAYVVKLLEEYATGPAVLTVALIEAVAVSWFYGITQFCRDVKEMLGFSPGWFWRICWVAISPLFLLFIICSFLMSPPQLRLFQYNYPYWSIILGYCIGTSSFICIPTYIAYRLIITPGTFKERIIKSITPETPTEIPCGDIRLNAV
pKi: −log10 of the molar value. Structures can show the parent of a compound that is named as a salt.
value.type: pKi

Look over these answered cases.
compound: CCOc1cccc(-c2ccccc2CO[C@H]2CCNC2)c1
value: 7.41

compound: COc1cccc(-c2ccccc2CO[C@H]2CCNC2)c1
value: 7.56

compound: Fc1cc(CO[C@H]2CCNC2)c(-c2cccc(F)c2F)cc1F [Example A-31, fumarate]
value: 6.85

compound: Fc1ccc(-c2ccccc2CO[C@@H]2CCNC2)c(F)c1 [Example A-20, fumarate]
value: 6.51

compound: c1ccc(-c2ccncc2)c(CO[C@H]2CCNC2)c1 [Example A-28, hydrochloride]
value: 5.75

(I) Fc1ccccc1-c1ccccc1CO[C@@H]1CCNC1 [Example A-16, fumarate]
(II) Fc1cccc(-c2ccccc2CO[C@@H]2CCNC2)c1F [Example A-15, fumarate]
// pick min by pKi: I , II Mark your selection by writing its label.
I
(I: 6.36, II: 6.73)

(A) COc1cccc(-c2ccc(F)cc2CO[C@H]2CCNC2)c1
(B) Fc1ccc(-c2ccccc2CO[C@H]2CCNC2)cc1 [Example A-8, maleate]
// pick min by pKi: A , B Mark your selection by writing its label.
A
(A: 7.22, B: 7.69)

====

Biological target: human norepinephrine transporter (Homo sapiens, UniProt P23975)
Sequence (P23975 whole entry): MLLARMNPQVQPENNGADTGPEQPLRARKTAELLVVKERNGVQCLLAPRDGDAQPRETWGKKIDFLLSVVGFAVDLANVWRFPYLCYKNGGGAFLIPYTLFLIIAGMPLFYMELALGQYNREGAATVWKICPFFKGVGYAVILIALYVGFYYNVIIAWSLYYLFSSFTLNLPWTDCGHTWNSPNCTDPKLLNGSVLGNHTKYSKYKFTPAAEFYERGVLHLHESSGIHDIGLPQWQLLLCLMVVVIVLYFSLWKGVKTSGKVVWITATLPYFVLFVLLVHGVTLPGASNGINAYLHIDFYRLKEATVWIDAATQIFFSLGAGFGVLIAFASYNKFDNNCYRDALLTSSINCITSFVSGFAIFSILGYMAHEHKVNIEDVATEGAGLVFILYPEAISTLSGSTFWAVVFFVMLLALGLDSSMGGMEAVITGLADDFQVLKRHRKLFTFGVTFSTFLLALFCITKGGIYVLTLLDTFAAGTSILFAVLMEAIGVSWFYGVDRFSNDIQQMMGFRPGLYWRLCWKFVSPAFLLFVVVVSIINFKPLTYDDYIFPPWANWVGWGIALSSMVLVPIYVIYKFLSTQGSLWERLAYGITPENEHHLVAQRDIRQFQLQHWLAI
Where a name gives a salt, the structure may show the parent alone.
value.type: Ki (nM)

compound: COc1ccc(-c2ccccc2CO[C@H]2CCNC2)cn1 [Example A-29, fumarate]
value.type: Ki
value: 2910

(A) Cc1cc(F)ccc1-c1ccccc1CO[C@H]1CCNC1 [Example A-12, hydrochloride]
(B) COc1cc(-c2ccc(F)cc2CO[C@H]2CCNC2)cc(OC)c1OC
// pick min by Ki: A , B Mark your selection by writing its label.
A
(A: 50 nM, B: 1520 nM)

(1) c1ccc(-c2cnc3[nH]ccc3c2)c(CO[C@H]2CCNC2)c1
(2) CC(C)OC(=O)c1ccc(-c2ccc(F)cc2CO[C@H]2CCNC2)cc1
(3) CCOc1cccc(-c2ccccc2CO[C@H]2CCNC2)c1
(4) Fc1ccc(CO[C@H]2CCNC2)c(-c2ccccc2F)c1 [Example A-25, hydrochloride]
(5) Fc1ccc(-c2ccc(F)c(Cl)c2)c(CO[C@H]2CCNC2)c1
Rank entries according to their Ki, from the largest number down. Write out the labels following the order that was asked for.
1, 2, 5, 4, 3
(1: 7400 nM, 2: 1030 nM, 5: 146 nM, 4: 26.2 nM, 3: 4.84 nM)

(a) N#Cc1ccc(-c2ccccc2CO[C@H]2CCNC2)cc1
(b) Fc1ccc(-c2c(F)cccc2CO[C@H]2CCNC2)c(F)c1 [Example A-34, hydrochloride]
(c) Cc1cc(F)ccc1-c1ccc(F)cc1CO[C@H]1CCNC1
(d) Fc1cc(CO[C@H]2CCNC2)c(-c2cccc(F)c2F)cc1F [Example A-31, fumarate]
Order by Ki, ascending. Write out the labels following the order that was asked for.
b, d, c, a
(b: 23.3 nM, d: 46.3 nM, c: 121 nM, a: 5410 nM)

====

Target: human norepinephrine transporter (Homo sapiens)
Structures can show the parent of a compound that is named as a salt.
value.type: Ki (µM)

Look over these answered cases.
compound: Fc1cccc(-c2ccc(F)cc2CO[C@H]2CCNC2)c1
Ki, µM: 0.036
--
compound: Cc1cccc(-c2ccc(F)cc2CO[C@H]2CCNC2)c1
Ki, µM: 0.0904
--
compound: Oc1ccccc1-c1ccc(F)cc1CO[C@H]1CCNC1
Ki, µM: 0.65
--
compound: COc1ccc(-c2ccc(F)cc2CO[C@H]2CCNC2)c(OC)c1
Ki, µM: 1.35
--
compound: Cc1cccc(-c2ccc(F)cc2CO[C@H]2CCNC2)c1C
Ki, µM: 0.258

(P) CCOc1cccc(-c2ccc(F)cc2CO[C@H]2CCNC2)c1
(Q) COc1ccc(F)cc1-c1ccc(F)cc1CO[C@H]1CCNC1
(R) Fc1ccc(-c2ccccc2CO[C@@H]2CCNC2)c(F)c1 [Example A-20, fumarate]
(S) Fc1ccc(-c2ncccc2CO[C@H]2CCNC2)cc1F [Example B-3, fumarate]
(T) COc1ccc(-c2ccccc2CO[C@H]2CCNC2)cc1C [Example D-2]
Order by Ki, ascending. Write out the labels following the order that was asked for.
T, R, S, P, Q
(T: 0.00842 µM, R: 0.127 µM, S: 0.31 µM, P: 0.832 µM, Q: 1.29 µM)

====

Assay system human serotonin transporter (Homo sapiens, UniProt P31645); read-out recorded as pKi.
pKi: −log10 of the molar value. Counter-ions that a name gives are not always drawn.
value.type: pKi

Look over these answered cases.
compound: COc1ccccc1-c1ccccc1CO[C@H]1CCNC1 [Example D-24]
pKi: 5.90
--
compound: Fc1ccc(-c2c(F)cccc2CO[C@H]2CCNC2)c(F)c1 [Example A-34, hydrochloride]
pKi: 6.36

(A) Clc1ccccc1-c1ccccc1CO[C@H]1CCNC1
(B) N#Cc1cccc(-c2cccc(F)c2F)c1CO[C@H]1CCNC1 [Example E-3, fumarate]
Of the two listed items, which has the higher pKi? First: A Second: B Mark your selection by writing its label.
A
(A: 6.46, B: 5.80)

(I) Fc1ccc(-c2ccc(F)c(Cl)c2)c(CO[C@H]2CCNC2)c1
(II) FC(F)(F)Oc1ccc(-c2ccccc2CO[C@H]2CCNC2)cc1
// pick min by pKi: I , II Mark your selection by writing its label.
I

(a) c1ccc(-c2ccc3ccccc3c2)c(CO[C@H]2CCNC2)c1
(b) Fc1ccccc1-c1c(F)cccc1CO[C@H]1CCNC1 [Example A-32, hydrochloride]
(c) Fc1ccc(-c2ccccc2CO[C@H]2CCNC2)c(F)c1 [Example A-1, fumarate]
(d) Fc1ccc(-c2ccccc2-c2ccccc2)c(CO[C@H]2CCNC2)c1
Order by pKi, ascending. Write out the labels following the order that was asked for.
d, b, a, c

(P) Fc1ccc(-c2cc(Cl)cc(Cl)c2)c(CO[C@H]2CCNC2)c1
(Q) COc1ccc(-c2ccc(F)cc2CO[C@H]2CCNC2)cc1F
(R) CC(C)Oc1ncccc1-c1ccccc1CO[C@H]1CCNC1
Order by pKi, ascending. Write out the labels following the order that was asked for.
R, Q, P

(A) c1cc(-c2ccccc2CO[C@H]2CCNC2)cc(-n2cccn2)c1
(B) Fc1cccc(-c2c(F)cccc2CO[C@H]2CCNC2)c1F [Example A-26, hydrochloride]
Of the two listed items, which has the higher pKi? First: A Second: B Mark your selection by writing its label.
A

(P) Fc1ccc(-c2ccccc2OCc2ccccc2)c(CO[C@H]2CCNC2)c1
(Q) Cl.Fc1ccc(-c2cccc(F)c2F)c(CO[C@H]2CCNC2)c1 [Example A-4, hydrochloride]
(R) COc1cc(-c2ccccc2CO[C@H]2CCNC2)cc(OC)c1OC
(S) Cc1cccc(-c2ccccc2CO[C@H]2CCNC2)c1
(T) Fc1cccc(-c2ccccc2CO[C@H]2CCNC2)c1F.O=C(O)/C=C/C(=O)O [Example A-6, fumarate]
Order by pKi, ascending. Write out the labels following the order that was asked for.
R, P, Q, T, S

(A) CCOc1cccc(-c2ccc(F)cc2CO[C@H]2CCNC2)c1
(B) CC(=O)c1cccc(-c2ccc(F)cc2CO[C@H]2CCNC2)c1
(C) Cc1ccc(-c2ccccc2CO[C@H]2CCNC2)cc1 [Example A-2, hydrochloride]
(D) CCOc1ncccc1-c1ccccc1CO[C@H]1CCNC1
Rank entries according to their pKi, from the largest number down. Write out the labels following the order that was asked for.
C, A, B, D

(P) N#Cc1cccc(-c2ccccc2CO[C@H]2CCNC2)c1 [Example D-30]
(Q) Oc1ccccc1-c1ccc(F)cc1CO[C@H]1CCNC1
// pick min by pKi: P , Q Mark your selection by writing its label.
Q
(Q: 5.96, P: 6.55)

====

Molecular target: human serotonin transporter (Homo sapiens)
Where a name gives a salt, the structure may show the parent alone.
value.type: Ki (nM)

Look over these answered cases.
compound: N#Cc1cccc(-c2ccc(F)cc2CO[C@H]2CCNC2)c1
value: 319
//
compound: Fc1ccc(-c2ncccc2CO[C@H]2CCNC2)cc1F [Example B-3, fumarate]
value: 1200
//
compound: CCc1ccccc1-c1ccc(F)cc1CO[C@H]1CCNC1
value: 1470

(1) Fc1ccc(-c2cc(F)ccc2CO[C@H]2CCNC2)c(F)c1 [Example A-23, hydrochloride]
(2) N#Cc1cccc(-c2cc(F)ccc2F)c1CO[C@H]1CCNC1 [Example E-1, fumarate]
(3) CSc1ccccc1-c1ccccc1CO[C@H]1CCNC1 [Example A-21, hydrochloride]
(4) c1ccc(-c2ccccc2CO[C@@H]2CCNC2)cc1 [Example A-14, hydrochloride]
Order by Ki, ascending. Write out the labels following the order that was asked for.
1, 4, 3, 2

====

Biological target: human norepinephrine transporter (Homo sapiens, UniProt P23975)
Where a name gives a salt, the structure may show the parent alone.
value.type: Ki (nM)

Look over these answered cases.
molecule: Fc1cccc(-c2cccnc2CO[C@H]2CCNC2)c1F [Example C-2, fumarate]
unit.string: nM
value: 845

molecule: c1ccc(-c2ccccc2CO[C@@H]2CCNC2)cc1 [Example A-14, hydrochloride]
unit.string: nM
value: 67.5

molecule: Fc1cccc(-c2c(F)cccc2CO[C@H]2CCNC2)c1F [Example A-26, hydrochloride]
unit.string: nM
value: 30.6

molecule: COc1ccc(OC)c(-c2ccc(F)cc2CO[C@H]2CCNC2)c1
unit.string: nM
value: 1160

(1) COc1ccccc1-c1ccc(F)cc1CO[C@H]1CCNC1
(2) N#Cc1cccc(-c2cccc(F)c2F)c1CO[C@H]1CCNC1 [Example E-3, fumarate]
(3) Fc1ccccc1-c1cccc(F)c1CO[C@H]1CCNC1 [Example A-30, fumarate]
(4) Fc1ccc(CO[C@H]2CCNC2)c(-c2cccc(F)c2F)c1 [Example A-24, hydrochloride]
Rank entries according to their Ki, from the largest number down. Write out the labels following the order that was asked for.
2, 1, 3, 4
(2: 560 nM, 1: 205 nM, 3: 80.1 nM, 4: 14.2 nM)

(I) Fc1ccc(-c2ccccc2OCc2ccccc2)c(CO[C@H]2CCNC2)c1
(II) CCOc1ccc(-c2ccc(F)cc2CO[C@H]2CCNC2)cc1
Of the two listed items, which has the higher Ki? First: I Second: II Mark your selection by writing its label.
II
(II: 706 nM, I: 148 nM)
